Values compiled from patent US8598202B2.

target: Rat FAAH-1 (Rattus norvegicus, UniProt P97612); assay: Assay Method 2: rat FAAH-1 assay, 3H-anandamide hydrolysis in homogenate of SK-N-MC cells transfected with rat FAAH
Sequence (P97612 whole entry): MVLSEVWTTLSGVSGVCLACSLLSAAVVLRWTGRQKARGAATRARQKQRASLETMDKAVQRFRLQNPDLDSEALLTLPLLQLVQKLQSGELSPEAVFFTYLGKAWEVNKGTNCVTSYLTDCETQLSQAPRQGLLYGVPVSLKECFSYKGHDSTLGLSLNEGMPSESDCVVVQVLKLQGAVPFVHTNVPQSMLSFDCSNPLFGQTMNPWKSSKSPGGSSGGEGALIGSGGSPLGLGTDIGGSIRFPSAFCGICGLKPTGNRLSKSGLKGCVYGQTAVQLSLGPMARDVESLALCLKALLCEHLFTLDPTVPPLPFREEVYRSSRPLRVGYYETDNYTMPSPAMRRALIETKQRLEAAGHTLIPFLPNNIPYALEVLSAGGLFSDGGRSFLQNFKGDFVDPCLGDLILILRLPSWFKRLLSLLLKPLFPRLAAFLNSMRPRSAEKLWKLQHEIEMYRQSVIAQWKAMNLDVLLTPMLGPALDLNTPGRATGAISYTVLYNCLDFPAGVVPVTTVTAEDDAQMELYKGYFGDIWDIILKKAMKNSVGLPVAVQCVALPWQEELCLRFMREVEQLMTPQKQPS
Structures can show the parent of a compound that is named as a salt.
RESULT_TYPE: IC50 (nM)

Below: 5 compounds and their reported IC50.
| COMPOUND | TARGET_SYSTEM | IC50 / nM |
| --- | --- | --- |
| OC(CNc1cc(-c2ccc3ccccc3c2)ncn1)c1ccccc1 (centres unmarked) | Rat FAAH-1 (Rattus norvegicus, UniProt P97612) | 324 |
| COc1nc(NC[C@H](O)c2ccccc2)cc(-c2ccc(C(F)(F)F)c(Cl)c2)n1 [Example 164, trifluoroacetic acid salt] | Rat FAAH-1 (Rattus norvegicus, UniProt P97612) | 14 |
| N#Cc1ccc(C(O)CNc2cc(-c3ccc(C(F)(F)F)c(Cl)c3)ncn2)cc1 (centres unmarked) | Rat FAAH-1 (Rattus norvegicus, UniProt P97612) | 7 |
| O=Cc1ccc(-c2cc(NC[C@H](O)c3ccccc3)ncn2)cc1 | Rat FAAH-1 (Rattus norvegicus, UniProt P97612) | 270 |
| C[C@@H](Nc1cc(-c2ccc(OC(F)(F)F)cc2)ncn1)[C@@H](O)c1ccccc1 | Rat FAAH-1 (Rattus norvegicus, UniProt P97612) | 5000 |

A = O=S(=O)(c1ccc(-c2cc(NC[C@H](O)c3ccccc3)ncn2)cc1)N1CCCCC1
B = O[C@@H](CNc1cc(-c2ccc(C(F)(F)F)c(Cl)c2)ncn1)c1ccc(F)cc1
C = Cc1nc(NC[C@H](O)c2ccccc2)cc(-c2ccc(C(F)(F)F)c(Cl)c2)n1
D = OC(CNc1cc(-c2ccc(OC(F)(F)F)cc2)ncn1)c1ccccc1Cl (centres unmarked)
[ask] // ascending sort on recorded IC50 Answer with the labels in sequence, matching the requested order.
[reply] B, C, D, A
(B: 3 nM, C: 40 nM, D: 205 nM, A: 530 nM)

I = O[C@@H](CNc1cc(-c2cc3cc(F)ccc3s2)ncn1)c1ccccc1
II = O[C@@H](CNc1cc(-c2ccc3sccc3c2)ncn1)c1ccccc1 [Example 100, trifluoroacetic acid salt]
III = O[C@@H](CNc1cc(-c2cccc(C(F)(C(F)(F)F)C(F)(F)F)c2)ncn1)c1ccccc1
IV = CCCOc1ccc(-c2cc(NC[C@H](O)c3ccccc3)ncn2)cc1F [Example 35, trifluoroacetic acid salt]
[ask] Parameters: sort_field (IC50), sort_dir (desc). Put the labels in the requested order and list them out.
[reply] II, III, I, IV
(II: 1400 nM, III: 690 nM, I: 400 nM, IV: 180 nM)

---

target: FAAH (Homo sapiens); assay: Assay Method 1: FAAH assay, 3H-anandamide hydrolysis in homogenate of T84 cells or SK-N-MC cells transfected with human FAAH
Sequence (O00519 whole entry): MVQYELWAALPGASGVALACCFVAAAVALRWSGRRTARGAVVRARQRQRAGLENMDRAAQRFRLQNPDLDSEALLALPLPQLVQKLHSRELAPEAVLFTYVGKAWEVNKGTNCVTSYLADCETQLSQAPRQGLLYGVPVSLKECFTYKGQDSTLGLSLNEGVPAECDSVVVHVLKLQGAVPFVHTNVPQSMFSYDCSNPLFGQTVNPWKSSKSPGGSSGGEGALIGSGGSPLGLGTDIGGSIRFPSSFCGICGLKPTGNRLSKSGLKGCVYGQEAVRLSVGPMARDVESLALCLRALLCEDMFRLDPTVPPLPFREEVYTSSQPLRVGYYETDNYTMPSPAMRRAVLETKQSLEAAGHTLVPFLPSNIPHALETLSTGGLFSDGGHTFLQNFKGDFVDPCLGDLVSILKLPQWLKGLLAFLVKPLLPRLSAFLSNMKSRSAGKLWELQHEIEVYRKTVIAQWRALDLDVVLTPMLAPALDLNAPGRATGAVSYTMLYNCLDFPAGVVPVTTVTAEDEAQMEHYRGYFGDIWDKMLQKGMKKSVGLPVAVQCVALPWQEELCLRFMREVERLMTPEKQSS
RESULT_TYPE: IC50 (nM)

// worked examples, IC50 included
| MOLECULE | TARGET_SYSTEM | IC50, nM |
| --- | --- | --- |
| CC(=O)c1ccc(-c2cc(NCC(O)c3ccccc3)ncn2)s1 (centres unmarked) | FAAH (Homo sapiens) | 700 |
| C[C@@H]([C@H](O)c1ccccc1)N(C)c1cc(-c2ccc(OC(F)(F)F)cc2)ncn1 | FAAH (Homo sapiens) | 580 |
| N#Cc1cccc(C(O)CNc2cc(-c3ccc(C(F)(F)F)c(Cl)c3)ncn2)c1 (centres unmarked) | FAAH (Homo sapiens) | 25 |

1 = O[C@@H](CNc1cc(-c2cc3cc(F)ccc3s2)ncn1)c1ccccc1
2 = O[C@@H](CNc1cc(-c2ccc(OC(F)(F)F)c(Cl)c2)ncn1)c1ccccc1
[ask] Please indicate which entry, 1 or 2 , has the lower recorded IC50 value. Bench note: the answer is the label of the chosen record.
[reply] 2
